# Protocol notes: plasma pharmacokinetics after oral and intravenous administration
# Assay type: in vivo, Sprague-Dawley (SD) rats
# Assay conditions: both, Sprague-Dawley, rat
Quantity: Tmax

Tmax for Cl.Cl.O=C(CCN1CCCCC1)c1ccc(-c2ccc(C(=O)CCN3CCCCC3)cc2)cc1 is ~45 min

====

# Protocol notes: plasma pharmacokinetics after oral and intravenous administration
# Assay type: in vivo, Sprague-Dawley (SD) rats
# Assay conditions: both, Sprague-Dawley, rat, 50 mg/kg
Quantity: Cmax (ng/mL)
Answers are plain numbers, in ng/mL.

Cmax for Cl.Cl.O=C(CCN1CCCCC1)c1ccc(-c2ccc(C(=O)CCN3CCCCC3)cc2)cc1 is 56.1

Source listed as paper PMC6625456.
